B1: KLHL13 (parent)
chain: GVSKVGLRKIIDFIYTAKLSLNMD

variants of: B1; assay: protein stability index of a GFP-peptide fusion (GPS, HEK-293T) (PSI 1-6); higher = more stable; conditions: c terminus: a fixed tail appended;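 also: lentivirally expressed fusions sorted by FACS into six bins by GFP to DsRed ratio, PSI derived from sequencing read proportions per bin multiplied by bin number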
measurement_type: protein stability index

# mutant_id, measurement_type, result_value
data = [
    ("S3M", "protein stability index", 2.17),
    ("V5T", "protein stability index", 4.05),
    ("K9G", "protein stability index", 1.91),
    ("G6C", "protein stability index", 1.49),
    ("F13N", "protein stability index", 1.48),
    ("V2P", "protein stability index", 1.83),
    ("M23D", "protein stability index", 2.09),
    ("L7K", "protein stability index", 1.86),
    ("K18P", "protein stability index", 2.89),
    ("L19S", "protein stability index", 1.63),
    ("S3D", "protein stability index", 2.68),
    ("G6N", "protein stability index", 2.05),
    ("S20R", "protein stability index", 2.11),
    ("N22V", "protein stability index", 1.32),
    ("K4S", "protein stability index", 2.88),
    ("G6V", "protein stability index", 3.71),
    ("K9A", "protein stability index", 4.24),
    ("K4W", "protein stability index", 2.34),
    ("G1N", "protein stability index", 2.53),
    ("F13M", "protein stability index", 2.74),
    ("I11M", "protein stability index", 3.33),
    ("L21S", "protein stability index", 2.72),
    ("L21D", "protein stability index", 1.8),
    ("N22D", "protein stability index", 2.3),
    ("G1W", "protein stability index", 3.32),
    ("R8W", "protein stability index", 3.31),
    ("L19D", "protein stability index", 1.36),
    ("K9L", "protein stability index", 2.37),
    ("V5Y", "protein stability index", 2.06),
    ("V2K", "protein stability index", 2.38),
    ("K18R", "protein stability index", 2.63),
    ("N22M", "protein stability index", 2.26),
    ("R8I", "protein stability index", 2.55),
    ("N22P", "protein stability index", 4.34),
    ("I14A", "protein stability index", 2.38),
    ("V2C", "protein stability index", 1.52),
    ("S3W", "protein stability index", 2.47),
    ("Y15P", "protein stability index", 1.84),
    ("G6S", "protein stability index", 2.08),
    ("K18H", "protein stability index", 2.72),
    ("D24A", "protein stability index", 3.2),
    ("S20A", "protein stability index", 3.46),
    ("S3Q", "protein stability index", 2.92),
    ("K4T", "protein stability index", 4.12),
    ("R8A", "protein stability index", 5.37),
    ("L7A", "protein stability index", 2.27),
]
